- testTarget: human PAI-1, active, wild-type, non-glycosylated (E. coli-derived) (human, UniProt P05121 24-402)
- Sequence (P05121 24-402): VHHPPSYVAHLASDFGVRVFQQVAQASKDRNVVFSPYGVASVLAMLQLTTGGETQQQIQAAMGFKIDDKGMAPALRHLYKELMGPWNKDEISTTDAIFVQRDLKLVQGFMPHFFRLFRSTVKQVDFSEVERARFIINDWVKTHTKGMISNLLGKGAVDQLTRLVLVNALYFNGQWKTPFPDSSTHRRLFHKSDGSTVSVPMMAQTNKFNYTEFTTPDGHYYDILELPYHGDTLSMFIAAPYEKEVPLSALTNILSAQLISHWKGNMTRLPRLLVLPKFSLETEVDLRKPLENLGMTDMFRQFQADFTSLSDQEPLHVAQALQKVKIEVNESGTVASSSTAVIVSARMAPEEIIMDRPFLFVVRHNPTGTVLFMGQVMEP
- assayExplanation: cell-based or functional assay
assayMetric: IC50 chromogenic (nM)
Give the number; nM is assumed, so skip it.

Please review the entries below; each comes with its answer.
{"binder": "Antibody 19, scFv (scFv, V domains shown) VH: QVQLQQSGAEVKKPGSSVKVSCKASGGTFSSYAISWVRQAPGQGLEWMGGIIPIFDTANYAQKFQGRVTITADESTSTAYMELSGLRSEDTAVYYCARERRQWLEGHFDYWGRGTPVTVSS VL: DIRMTQSPSFLSASIGDRVTITCRASEGIYHELAWYQQKPGKAPKLLIYRASSLASGAPSRFSGSGSGTEFTLTISSLQPDDFATYYCQQYSNYPLTFGGGTKLEIK", "IC50 chromogenic [nM]": 26}
{"binder": "Antibody 01, scFv (scFv, V domains shown) VH: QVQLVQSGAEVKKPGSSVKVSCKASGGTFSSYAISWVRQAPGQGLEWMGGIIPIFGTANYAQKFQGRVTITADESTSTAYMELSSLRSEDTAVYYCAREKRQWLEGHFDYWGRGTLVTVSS VL: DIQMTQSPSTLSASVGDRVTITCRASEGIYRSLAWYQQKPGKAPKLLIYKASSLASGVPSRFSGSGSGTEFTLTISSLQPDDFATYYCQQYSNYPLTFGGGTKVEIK", "IC50 chromogenic [nM]": 3.4}

Which IC50 chromogenic value belongs to Antibody 22, scFv (scFv, V domains shown) VH: QVQLQQSGAEVKKPGSSVKVSCKASGGTFSGYAISWVRQAPGQGLEWMGGIIPTFGTANYSQKFQGRVTITADESTSTAYMELSGLRSEDTAVYYCAREKRQWLEGHFDYWGRGTPVTVSS VL: DIQMTQSLSFLSASIGDRVTITCRASEGIYHALAWYQQKPGKAPKLLIYRASSLASGAPSRFSGSGSGTDFTLTISSLQPDDFATYYCQQYSNYPLTFGGGTKLEIK ? 5

Reference source for all entries: patent US20120114652A1
